The reported measurements were obtained from paper PMC5540273.

Reported values of %Inh for individual entries
test system: MEK2; construct: gene MAP2K2; settings: concentration: 1 μM, replicates: in singlicate; n = 1;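 further: KINOMEscan kinase panel screen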

Answered cases to consult:
- compound: "Fc1ccc(-c2nn3cccc(F)c3c2-c2ccncc2)cc1 [GW475620]"
  system tested: "MEK2"
  %Inh: "0%"
- compound: "COc1ccc2cc(-c3nc(-c4ccccc4C(C)C)[nH]c3-c3ccncc3)ccc2c1 [SB-660566]"
  system tested: "MEK2"
  %Inh: "0%"
- compound: "Cc1c(Cn2c3ccccc3n3c(=O)cc(N4CCOCC4)nc23)cccc1C(F)(F)F [GSK2306394]"
  system tested: "MEK2"
  %Inh: "0%"
- compound: "COC(=O)c1cccc(NC(=O)NC2CCN(c3ccnc(Nc4ccc(F)cc4)n3)C2)c1 (stereo not drawn) [GSK1379725]"
  system tested: "MEK2"
  %Inh: "0%"
- compound: "COc1ccc(CSc2nnc(-c3ccc4ncsc4c3)o2)cc1C(F)(F)F"
  system tested: "MEK2"
  %Inh: "9%"

**Query** May I ask what %Inh has been recorded for Nc1nccc(-c2c(-c3ccc(F)cc3)ncn2C2CCN(Cc3ccccc3)CC2)n1 [SB-219980] ?
**Result** 9%

**Query** Find the recorded %Inh belonging to COC(=O)c1cccc(NC(=O)NC2CCN(c3ccnc(Nc4ccc(OC)cc4)n3)C2)c1 (stereo not drawn) [GSK1379746] and report it.
**Result** 0%

**Query** // returns reported %Inh for input CNc1nc(-c2ccc3c(N)n[nH]c3c2)cc(N2C[C@@H](C(=O)NC3CCCCC3)OC[C@H]2C)n1 [GSK2375584]
**Result** 11%

**Query** # lookup: %Inh of CCc1ccc(-c2ccc3c(c2)-c2n[nH]cc2S(=O)(=O)N3C)cc1
**Result** 86%
